// data source = PubChem BioAssay

- target-system: Torsin-1A (Homo sapiens)
- test-name: small-molecule binders of mutant TOR1A in lysate, primary screen, cell lysate, small-molecule microarray, COS7 lysate, 635/667 nm fluorescence (AID 1150);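 note: score pools 667 nm emission and signal to noise measuring lysate protein binding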
- settings: COS7 hTOR1A mutant lysate, 635 nm fluorescence, higher = more signal
Assign composite z-score to each entry below.
// no unit, no text: just the number

*Q* Give the measured composite z-score for COc1ccc([Si](C)(C)[C@H]2[C@H](CCO)O[C@@]3(C(=O)N(Cc4ccccc4)c4ccc(N5CCOC5=O)cc43)[C@@H]2C)cc1
*A* -0.12

*Q* Output composite z-score of COCCOC(=O)N1C(=O)[C@@]2(c3cc(C#CCNC(N)=O)ccc31)[C@H](c1ccc(O)cc1)N1[C@H](c3ccccc3)[C@H](c3ccccc3)OC(=O)[C@H]1[C@@H]2C(=O)N1CCN(c2ncccn2)CC1
*A* 0.747

*Q* Report measured composite z-score; entry is COCCOC(=O)N1C(=O)[C@@]2(c3cc(C#CCCO)ccc31)[C@H](C(N)=O)[C@H]1C(=O)O[C@H](c3ccccc3)[C@H](c3ccccc3)N1[C@@H]2c1ccc(OCCO)cc1
*A* 0.684

*Q* Give the reported composite z-score for this molecule. C=CCNC(=O)[C@H]1[C@@H]2C(=O)O[C@@H](c3ccccc3)[C@@H](c3ccccc3)N2[C@@H](c2ccc(OCCO)cc2)[C@]12C(=O)N(C(=O)OCCOC)c1ccc(C#Cc3ccc(OC)cc3)cc12
*A* 0.86

*Q* Determine its reported composite z-score: O=C1N(CCS(=O)(=O)c2ccccc2)Cc2ccccc2[C@@H]2OC(c3ccc(OCCCO)cc3)=N[C@]12CCS(=O)(=O)c1ccccc1
*A* 1.51

----------
- target-system: Fibroblast growth factor 2 (Homo sapiens)
- test-name: FGF2 binders on small-molecule microarrays, primary screen, biochemical, small-molecule microarray, 635/667 nm fluorescence (AID 1133)
- settings: small-molecule microarray binding, FGF2, fluorescence 635/667; higher = more signal
Quick rule: composite z-score of at least -0.07 means Fulfilled, below that means Not fulfilled.

*Q* Is reported composite z-score greater than or equal to -0.07 here: CCCCC=C[C@@H](NC(=O)c1ccccc1)c1ccccc1
*A* Not fulfilled

*Q* In plain terms: is recorded composite z-score at least -0.07 for COc1cc(NN2C(C(O)C3CCCCC3)C=CC3C(=O)N(C)C(=O)C32)cc(OC)c1OC (stereo not drawn) ?
*A* Fulfilled

*Q* Evaluate COc1cc2c(cc1O)C(c1ccc(CN3CCCC3)cc1)N(C)CC2 (stereo not drawn) : composite z-score at minimum -0.07?
*A* Not fulfilled

*Q* I'd appreciate it if you could say whether COCCOC(=O)N1C(=O)[C@@]2(c3cc(C#CCC(C(=O)OC)C(=O)OC)ccc31)[C@H](C(=O)NC[C@H](O)c1ccccc1)[C@H]1C(=O)O[C@H](c3ccccc3)[C@H](c3ccccc3)N1[C@@H]2c1ccc(O)cc1 has composite z-score at least equal to -0.07.
*A* Fulfilled

*Q* Could you please find out whether C[C@]1(C(=O)NCC(F)(F)F)c2ccccc2C(=O)N(Cc2ccccc2)[C@H]1c1ccc(CO)cc1 has composite z-score that meets -0.07 or exceeds it?
*A* Not fulfilled

*Q* Determine whether measured composite z-score meets or exceeds -0.07 for Cc1c(NC(=O)/C(C#N)=C/c2ccccc2Cl)c(=O)n(-c2ccccc2)n1C
*A* Fulfilled

*Q* Does CN1C(=O)C2C=CC(C(O)c3ccc(F)cc3)N(NC(=O)OC(C)(C)C)C2C1=O (stereo not drawn) have a reported composite z-score of at least -0.07?
*A* Not fulfilled
